For each entry below, report its pIC50 value.
- Test system: P. falciparum 3D7 growth, pLDH absorbance
- method: blood-stage malaria parasite growth potency – strain 3D7, dose response (AID 2305)
Numbers only, as −log10 of the molar value.

[
  {
    "compound": "CCOC(C(=O)OCC1CCCN(C)C1)(c1ccccc1)c1ccccc1 (stereo not drawn)",
    "pIC50": 6.06
  }
]

Please go through the list and note pIC50 for each compound.
1. N=C(N)c1ccc(Nc2nccc(Nc3nc(-c4ccccc4)cs3)n2)cc1
2. CC(=O)Nc1ccc(C(=O)NC2CCN(c3ccnc4cc(Cl)ccc34)CC2)cc1
3. OC(CNCc1ccccc1OCc1ccccc1)c1cccc(I)c1 (stereo not drawn)
4. O=C(NC1CCC(N2CCC(O)(c3ccc(F)cc3)CC2)CC1)c1cc2ccccc2[nH]1 (stereo not drawn)

1: 6.12; 2: 6.44; 3: 6.38; 4: 6.13

----------
For each entry below, report its IC50 value.
- Test system: P. falciparum 3D7 growth, pLDH absorbance
- method: blood-stage malaria parasite growth potency – strain 3D7, dose response (AID 2305)
A bare number is not enough; add the unit after it.

// below: answered molecules
[
  {
    "molecule": "COc1ccc2c(NN=Cc3cccc(F)c3)cc(C)nc2c1",
    "observed": "780 nM"
  },
  {
    "molecule": "CCOC(=O)CCCCOc1c(OC)cc(Cc2cnc(N)nc2N)cc1OC",
    "observed": "30 nM"
  },
  {
    "molecule": "Clc1cc(Cl)c2cc(CNCCCNc3ccc4ccccc4n3)[nH]c2c1",
    "observed": "340 nM"
  },
  {
    "molecule": "CCNc1cc(C(=O)N[C@@H](Cc2ccccc2)[C@H](O)CNC(CC)c2cccc(Cl)c2)cc(N2CCCCS2(=O)=O)c1 (stereo not given in full)",
    "observed": "50 nM"
  },
  {
    "molecule": "c1ccc2c(NCCOCCNc3c4ccccc4nc4ccccc34)c3ccccc3nc2c1",
    "observed": "880 nM"
  },
  {
    "molecule": "COc1cccc(C2(NC[C@@H](O)[C@H](Cc3ccccc3)NC(=O)c3ccccc3)CCCCC2)c1",
    "observed": "730 nM"
  }
]

Please go through the list and note IC50 for each molecule.
1. O=C(NOCCCCOc1ccc(Cl)c(Cl)c1)c1ccccc1
2. Cn1nc(-c2ccc(NC(=O)Nc3cc(C(F)(F)F)ccc3F)cc2)c2cnc(NCCCCN3CCCC3)nc21
3. CC1CCCCC1N(C)C1CCN(CCCNC(=O)C=Cc2ccccc2Cl)CC1 (stereo not given)
4. CCCN(Cc1nnc(-c2cccs2)o1)C(=O)C1COc2ccccc2O1 (stereo not given)
5. Cc1[nH]c(C)c(-c2ccc(-c3ccccc3Cl)nc2)c(=O)c1Cl

1: 180 nM; 2: 530 nM; 3: 670 nM; 4: 850 nM; 5: 220 nM

Please go through the list and note IC50 for each molecule.
1. Cc1cc(C2CCN(CCCCNC(=O)c3ccc(NC(=O)c4ccc(Cl)cc4)cc3)CC2)c(C)cc1OCCN(C)C
2. CN1C(=C2SC(=Nc3ccc4ncccc4c3)N(Cc3ccccc3)C2=O)Sc2ccc(Cl)cc21
3. Cc1cc(NC(=O)N=C(N)N)ccc1Cl
4. Cc1ccc2c(Cc3cnc(N)nc3N)cc(C)c(N)c2n1
5. COc1ccc2nccc([C@@H](O)CN3CCC(NC(=O)c4ccc(Cl)c(Cl)c4)CC3)c2c1
6. CN1CCN(c2cccc(NC(=O)c3ccc(-c4ccc(C#N)cc4)cc3)c2)CC1
7. CCCCCn1c(Sc2ccc(C#N)c([N+](=O)[O-])c2)nnc1-c1ccc(Cl)cc1
8. C=CCC(CC=C)N1C(=O)C(c2ccccc2)(c2ccccc2)N=C1N

1. 770 nM
2. 1060 nM
3. 700 nM
4. 1420 nM
5. 610 nM
6. 1260 nM
7. 1080 nM
8. 660 nM

Bench note: what IC50 did CC(=O)Nc1cccc(CN(Cc2ccc(-c3ccc(CNCc4cccnc4)cn3)cc2)C(=O)Cc2cccnc2)c1 show?
820 nM

----------
- Tested on: P. falciparum 3D7 growth, pLDH absorbance
- method: blood-stage malaria parasite growth potency – strain 3D7, dose response (AID 2305)
Threshold-based label: IC50 under 0.5 µM gives condition met, IC50 not under 0.5 µM gives condition not met.

As a guide, the following entries are already answered.
[
  {
    "molecule": "CCOC(=O)c1ccc(-n2c(C)cc(C=C3SC(=Nc4ccccc4)N(C4CCCC4)C3=O)c2C)cc1",
    "assigned.category": "condition not met"
  },
  {
    "molecule": "COc1cc(Cc2cnc(N)nc2N)cc(OCCCCCC(=O)O)c1OC",
    "assigned.category": "condition met"
  },
  {
    "molecule": "CN(C)CCNCc1ccc(-c2ccc(-c3nc4ccc(F)cc4[nH]3)cc2)cc1",
    "assigned.category": "condition met"
  },
  {
    "molecule": "CC(C)Nc1cc(C(=O)N[C@@H](Cc2ccccc2)[C@H](O)CNC(C)(C)c2cccc(C(F)(F)F)c2)cc(N2CCCCS2(=O)=O)c1",
    "assigned.category": "condition met"
  },
  {
    "molecule": "O=C(NC1CCCCC1)N(Cc1cccc(-c2cccc(CNC3CCCC3)c2)c1)C1CCN(Cc2ccccc2)CC1",
    "assigned.category": "condition not met"
  },
  {
    "molecule": "O=c1cc(NCCCNC2CCCc3c2ccc2ccccc32)[nH]c2ccccc12 (centres undefined)",
    "assigned.category": "condition not met"
  }
]

Threshold test, IC50 < 0.5 µM: O=C(Nc1cccc(CN2CCCN(Cc3cccnc3)CC2)c1)c1ccc(Cl)c(Cl)c1
condition not met

Threshold test, IC50 < 0.5 µM: COc1ccc(-c2ccc3c(-c4cccc(S(C)(=O)=O)c4)cnc(N)c3c2)cc1
condition not met

Threshold test, IC50 < 0.5 µM: COc1ccc(CC(Cc2ccc(OC)cc2)NCC(O)c2cccc(Cl)c2)cc1 (centres undefined)
condition met

----------
- Test system: P. falciparum 3D7 growth, pLDH absorbance
- method: blood-stage malaria parasite growth potency – strain 3D7, dose response (AID 2305)
For each entry below, report its pIC50 value.
Numbers only, as −log10 of the molar value.

// below: answered compounds
[
  {
    "compound": "CC(C)(C)CCN1CCC(CNC(=O)c2cc(-c3cccc(C(F)(F)F)c3)cs2)C1 (centres undefined)",
    "experimental.readout": "pIC50",
    "observed": 6.05
  },
  {
    "compound": "c1ccc(-c2ccc(-c3csc(Nc4ccncc4)n3)cc2)cc1",
    "experimental.readout": "pIC50",
    "observed": 6.00
  },
  {
    "compound": "O=C(Nc1ccc(F)c(Cl)c1)NC1CCN(c2ccnc3cc(Cl)ccc23)C1 (centres undefined)",
    "experimental.readout": "pIC50",
    "observed": 6.68
  },
  {
    "compound": "CC(Cc1ccc(OCc2ccccc2)cc1)NCC(O)c1cccc(Cl)c1 (centres undefined)",
    "experimental.readout": "pIC50",
    "observed": 6.26
  },
  {
    "compound": "COc1ccc(CCNCCCCCCNCCCc2ccc(Cl)cc2)cc1OC",
    "experimental.readout": "pIC50",
    "observed": 6.02
  },
  {
    "compound": "COc1ccc(-c2ccc(NC(=O)c3cccc(C#N)c3)cc2)cc1CN1CCNCC1",
    "experimental.readout": "pIC50",
    "observed": 6.14
  },
  {
    "compound": "Cc1cc(OCCN2CCCCC2)ccc1NC(=O)c1cccc2c(=O)n(Cc3ccc(Cl)cc3)cnc12",
    "experimental.readout": "pIC50",
    "observed": 5.97
  },
  {
    "compound": "COc1cccc(CNC(=O)c2cnc(N3CCN(c4ccncc4)CC3)c(Cl)c2)c1",
    "experimental.readout": "pIC50",
    "observed": 5.94
  },
  {
    "compound": "CC(C)CNCc1ccc(-c2cccc(CN(C(=O)NCCc3ccccc3)C3CCN(Cc4ccccc4)CC3)c2)cc1",
    "experimental.readout": "pIC50",
    "observed": 6.24
  },
  {
    "compound": "CN(CCN1CCCC1)c1nc2ccc(-n3cnc4cc(-c5ccc(Cl)cc5)sc4c3=O)cc2[nH]1",
    "experimental.readout": "pIC50",
    "observed": 6.09
  }
]

Please go through the list and note pIC50 for each compound.
1. O=C(NC1CCC(CN2CCC(c3c[nH]c4ccccc34)CC2)CC1)c1cc(-c2ccccc2Cl)n(-c2cccc(Cl)c2)n1 (centres undefined)
2. CC(C)(C)c1ccc(S(=O)(=O)Nc2ccccc2N2CCOCC2)cc1
3. CC(C)c1cccc(OCC2CCN(c3ncc(C(=O)Nc4ccccc4)cc3Cl)CC2)c1
4. CS(=O)(=O)c1cccc(-c2cnc3[nH]cc(-c4cccc(CCN)c4)c3c2)c1

[6.07, 6.17, 5.97, 5.81]

Please go through the list and note pIC50 for each compound.
1. CC(=O)Nc1ccc(CN2CCC(N(C)c3cc(NC(=O)c4cccc(F)c4)ccn3)CC2)cc1
2. COc1ccc2nccc([C@@H](O)CN3CCC(NCc4cnc5snnc5c4)C(F)C3)c2c1 (some centres undefined)

1: 5.86; 2: 5.87

Please go through the list and note pIC50 for each compound.
1. CC(=O)Nc1cccc(C(=O)Nc2cccc(-c3ccc(-c4nc5c(C)cccc5[nH]4)s3)c2)c1
2. Cc1ccc(NC(=O)Nc2ccc(Cl)c(C(F)(F)F)c2)cc1-c1ccc(C(=O)Nc2ccncc2)cc1
3. O=C(Cn1c(CCc2cccc(F)c2F)cc(=O)c2ccccc21)N(Cc1ccc(-c2ccc(C(F)(F)F)cc2)cc1)C1CCN(CCN2CCOCC2)CC1

6.11
6.59
6.14
